- Tested on: HCT 116 (colon)
- assay.explanation: Cytotoxicity on human cells, automated nuclei counting: HCT 116
- Assay type: cell-based
- condition.set: HCT 116 cells, exposed 24 h to 48 h, 0.1 to 25 μM
measured.endpoint: IC50

Use the examples below as a reference point.
compound	measured.endpoint	recorded.measurement
O=C(Nc1ccc(Br)cn1)Nc1cccc2c1C1CCCCN1C2=O (centres unmarked)	IC50	> 25 µM
Cc1cccnc1NC(=O)Nc1cccc2c1C1CC3(CCN1C2=O)OCCO3 (centres unmarked)	IC50	25 µM
O=C(Nc1cccc(Br)n1)Nc1cccc2c1C1CC3(CCN1C2=O)SCCS3 (centres unmarked)	IC50	2.5 µM
O=C1c2cccc(NC(=S)Nc3ncccn3)c2C2CCCCN12 (centres unmarked)	IC50	> 25 µM

According to the records, this compound O=C1c2cccc(NC(=S)Nc3ncccc3Br)c2C2CC3(CCN12)SCCS3 (centres unmarked) displays IC50 of 25 µM

====

The following compounds are listed with their measured log10(IC50) values.
- Test system: Caco (colon)
- assay.explanation: Cytotoxicity on human cells, automated nuclei counting: Caco
- Assay type: cell-based
- condition.set: exposed 24 h to 48 h, 0.1 to 25 μM
Kindly note that the scale is log10 and the underlying IC50 is in µM.

compound	measured.endpoint	recorded.measurement
O=C(Nc1cc(-c2ccccc2)on1)Nc1cccc2c1C1CCCCN1C2=O (stereo not shown) [Compound 25]	log10(IC50)	-1.00
COC1CCN2C(=O)c3cccc(NC(=O)Nc4cc(C)ccn4)c3C2C1 (stereo not shown) [Compound 58]	log10(IC50)	-0.30
Cc1cccc(NC(=O)Nc2cccc3c2C2CC4(CCN2C3=O)SCCS4)n1 (stereo not shown) [Compound 50]	log10(IC50)	1.00
O=C1c2cccc(NC(=S)Nc3ccccn3)c2C2CCCCN12 (stereo not shown) [Compound 62]	log10(IC50)	1.30
O=C(Nc1ccccn1)Nc1cccc2c1C1CCCCN1C2=O (stereo not shown) [Compound 30]	log10(IC50)	-1.00

Okay, next one:
According to the records, this compound COC1CCN2C(=O)c3cccc(NC(=O)Nc4ccccn4)c3C2C1 (stereo not shown) [Compound 53] displays log10(IC50) of 0.40

====

System: DYRK1A (Homo sapiens) | Read-out: IC50

Use the examples below as a reference point.
molecule	recorded.measurement
O=C1c2cccc(NC(=S)Nc3ccc(Br)cn3)c2C2CCCCN12 (stereo not shown)	> 100 µM
COC1CCN2C(=O)c3cccc(NC(=O)Nc4cccc(C)n4)c3C2C1 (stereo not shown)	> 10 µM
O=C1c2cccc(NC(=S)Nc3cccc(Br)n3)c2C2CCCCN12 (stereo not shown)	92 µM

According to the records, this molecule O=C(Nc1cscn1)Nc1cccc2c1C1CCCCN1C2=O (stereo not shown) displays IC50 of > 10 µM

According to the records, this molecule O=C(Nc1ccc(Br)cn1)Nc1cccc2c1C1CC3(CCN1C2=O)SCCS3 (stereo not shown) displays IC50 of ≥ 10 µM

====

The following compounds are listed with their measured melting point values.

Use the examples below as a reference point.
compound	melting point
Cc1cccc(NC(=O)Nc2cccc3c2C2CC4(CCN2C3=O)OCCO4)n1 (stereo not shown)	240 to 242 °C
Cc1cnc(NC(=O)Nc2cccc3c2C2CC4(CCN2C3=O)SCCS4)cn1 (stereo not shown)	> 260 °C
COc1cc(NC(=O)Nc2cccc3c2C2CC(OC)CCN2C3=O)nc2ccccc12 (stereo not shown)	> 260 °C

Okay, next one:
According to the records, this compound O=C(Nc1cscn1)Nc1cccc2c1C1CCCCN1C2=O (stereo not shown) displays melting point of 178 to 180 °C
